Exercise: state measured selectivity ratio for each of the molecules provided.
Assay: Group toxicity is the ratio of the LD50 values of isolated mice to that of grouped mice
Format: organism-based
Conditions: mouse, in vivo; read-out: Group toxicity

CCOC(=O)CCN1CCN(CCOC(c2ccc(F)cc2)c2ccc(F)cc2)CC1.Cl | 0.4
O=C(O)/C=C\C(=O)O.O=C(O)/C=C\C(=O)O.O=C(O)CCN1CCN(CCOC(c2ccccc2)c2ccc(F)cc2)CC1 (centres undefined) | 1.7

Each molecule below has a recorded value; state its selectivity ratio.
1. CC(N)Cc1ccccc1.O=S(=O)(O)O (racemic) [AMPHETAMINE SULFATE]
2. O=C([O-])CCN1CCN(CCOC(c2ccccc2)c2ccccc2)CC1.[Na+]

# output
1. 5.3
2. 0.6

Where these numbers come from: ChEMBL document CHEMBL1121384
